pIC50: −log10 of the molar value.
Consider the following pIC50 data for 2-acylglycerol O-acyltransferase 2 (Homo sapiens, UniProt Q3SYC2), collected from several reports.
readout_kind: pIC50

Here are 2 compounds together with their reported answers.
{"columns": ["cpd_smiles", "tested_target", "pIC50"],
 "data": [
  ["O=c1c2c(nc(SCc3ccccc3)n1-c1ccccc1)CCN(c1nc3cc(F)c(F)cc3[nH]1)C2", "2-acylglycerol O-acyltransferase 2 (Homo sapiens, UniProt Q3SYC2)", 6.09],
  ["O=c1c2c(nc(SCc3ccnnc3)n1-c1ccccc1)CCN(c1nc3cc(C(F)(F)F)ccc3[nH]1)C2", "2-acylglycerol O-acyltransferase 2 (Homo sapiens, UniProt Q3SYC2)", 6.94]
]}

[1] CCc1ccc([C@@H](C)N2CCc3ccc(S(=O)(=O)Nc4noc(C(C)(C)C)c4C)cc3C2)cn1
[2] COc1ccc(C2=C(n3nn[nH]c3=O)C(=O)N[C@@](c3ccc(OCCCCCC(F)(F)F)cc3)(C(F)(F)F)C2)cc1
Which of the two items, 1 and 2 , has the greater recorded pIC50? Output the label that corresponds to your choice. 1
(1: 8.09, 2: 7.15)

###

Consider the following IC50 data for UniProtKB Q3SYC2, collected from several reports.
readout_kind: IC50 (nM)

Here are 5 molecules together with their reported answers.
{"columns": ["cpd_smiles", "IC50 (nM)"],
 "data": [
  ["CCn1ccc(C2=C(n3nn[nH]c3=O)C(=O)N[C@@](c3ccc(OCCCC(F)(F)F)cc3F)(C(F)(F)F)C2)n1", 108],
  ["COc1ccc(NS(=O)(=O)c2ccc3c(c2)CN([C@H](C)c2ccc(OCC(F)(F)F)nc2)CC3)nn1", 8.7],
  ["C[C@H](c1ccc(OCC(F)(F)F)nc1)N1CCc2ccc(S(=O)(=O)Nc3cc(C(C)(C)F)on3)cc2C1", 18],
  ["O=C1N[C@@](c2ccc(OCCCC(F)(F)F)cc2F)(C(F)(F)F)CC(c2ccn(CC3CCC3)n2)=C1n1nn[nH]c1=O", 5],
  ["C[C@H](c1ccccc1)N1CCc2ccc(S(=O)(=O)Nc3cc(C(C)(C)C)on3)cc2C1", 9]
]}

[1] O=C1N[C@@](c2ccc(CCCCC(F)(F)F)cc2F)(C(F)(F)F)CC(c2ccn(CC3CC3)n2)=C1n1nn[nH]c1=O
[2] CCOC(=O)c1noc(NS(=O)(=O)c2ccc3c(c2)CN([C@H](C)c2cc(F)cc(F)c2)CC3)n1
Decide: 1 or 2 , by lowest recorded IC50. Output the label that corresponds to your choice. 1
(1: 9 nM, 2: 14 nM)
